Tested on: HIV-1/LAI-derived strain I031L/I, Y181C, G190E, T386A
Test: Antiviral activity in MT4 cells, low MOI strain selected at 5.000 μM, day 35
Type: cell-based
Details: Human immunodeficiency virus 1, MT4, Comp. 1 5.000 μM, read-out: median(EC50 (μM))
Each entry below carries its reported EC50.
metric: EC50 (µM)

>  <compound>
Cc1ccnc2c1NC(=O)c1cccnc1N2C1CC1 [Nevirapine]

>  <metric>
EC50

>  <qualifier operator>
>

>  <result number>
10

$$$$
>  <compound>
Cc1cc(C#N)cc(C)c1Oc1nc(Nc2ccc(C#N)cc2)nc(N)c1Br [Compound 1]

>  <metric>
EC50

>  <qualifier operator>
=

>  <result number>
0.394

$$$$

src = patent US7473524B2
